Listed here are substances together with their documented Kd.
# Tested on: HIV-1 tat protein
# procedure_summary: direct filter binding assay of tat to TAR RNA (saturation binding, Scatchard analysis)
# condition_context: direct filter binding; HIV-1 TAR from saturation binding/Scatchard plot, mutants estimated from half-maximal binding; read-out: Kd (dissociation constant of tat binding)
I only need the number, in nM, no unit after it.

Example results:
HIV-1 TAR (UUU): full length HIV-1 TAR RNA of 59 residues prepared by transcription, wild type, UUU bulge (GGGUCUCUCUGGUUAGACCAGAUUUGAGCCUGGGAGCUCUCUGGCUAACUAGGGAACCC; unmodified RNA) [reference compound]	12
G to U (loop): TAR RNA in which residues 32-34 are changed to uridine (U) (GGGUCUCUCUGGUUAGACCAGAUUUGAGCCUUUUAGCUCUCUGGCUAACUAGGGAACCC; RNA, backbone not given here)	25
G28 to C28 ; C37 to G37: pair of TAR point mutations expected to have a normal TAR stem/loop structure (GGGUCUCUCUGGUUAGACCAGAUUUGACCCUGGGAGGUCUCUGGCUAACUAGGGAACCC; chemistry not given here)	24

Measured Kd, HIV-2 TAR: first stem-loop structure of HIV-2 ROD TAR RNA, bulge of two uridine residues (CUGCGGAGAGGCUGGCAGAUUGAGCCCUGGGAGGUUCUCUCCAGCACUAGCAG; RNA, backbone not given here) [reference compound] : 30

----------
Let's look at some substances and their measured Kd.
# Test system: HIV-1 tat protein
# procedure_summary: direct filter binding assay of tat to TAR RNA (saturation binding, Scatchard analysis)
# condition_context: direct filter binding; HIV-1 TAR from saturation binding/Scatchard plot, mutants estimated from half-maximal binding; read-out: Kd (dissociation constant of tat binding)

get_value(item= Antisense: anti-sense sequence to HIV-1 BRU TAR (antisense GGGUUCCCUAGUUAGCCAGAGAGCUCCCAGGCUCAAAUCUGGUCUAACCAGAGAGACCC; chemistry not given here) [reference compound] , readout=Kd) returns > 140 nM

Note to self: Kd recorded for delta U (bulge): TAR RNA in which residues 23-25 are deleted (GGGUCUCUCUGGUUAGACCAGAGAGCCUGGGAGCUCUCUGGCUAACUAGGGAACCC; RNA, backbone not given here) was > 70 nM

get_value(item= G28 to C28: TAR point mutation expected to disrupt the top of the TAR stem/loop structure (GGGUCUCUCUGGUUAGACCAGAUUUGACCCUGGGAGCUCUCUGGCUAACUAGGGAACCC; chemistry not given here) , readout=Kd) returns > 100 nM
